- System: H2170 cells
- assayMethodText: 5 day viability assay, CellTiter-Glo 2.0
- Format: cell-based
- measurementContext: Homo sapiens, NCI-H2170; H2170, ERBB2 amplification, ecDNA; read-out: 3-5 day acute cytotoxicity EC50
measuredParameter: pEC50
pEC50 (log units): -log10 of the concentration in mol/L.

Item: `Cc1cc(Nc2ncnc3ccc(NC4=NC(C)(C)CO4)cc23)ccc1Oc1ccn2ncnc2c1` | pEC50: 6.96

Where do the numbers come from? From patent US11642345B2.
